# study_target: Recombinant human calpain I (Homo sapiens, UniProt P07384)
# Construct: made in house
# Sequence (P07384 1-714): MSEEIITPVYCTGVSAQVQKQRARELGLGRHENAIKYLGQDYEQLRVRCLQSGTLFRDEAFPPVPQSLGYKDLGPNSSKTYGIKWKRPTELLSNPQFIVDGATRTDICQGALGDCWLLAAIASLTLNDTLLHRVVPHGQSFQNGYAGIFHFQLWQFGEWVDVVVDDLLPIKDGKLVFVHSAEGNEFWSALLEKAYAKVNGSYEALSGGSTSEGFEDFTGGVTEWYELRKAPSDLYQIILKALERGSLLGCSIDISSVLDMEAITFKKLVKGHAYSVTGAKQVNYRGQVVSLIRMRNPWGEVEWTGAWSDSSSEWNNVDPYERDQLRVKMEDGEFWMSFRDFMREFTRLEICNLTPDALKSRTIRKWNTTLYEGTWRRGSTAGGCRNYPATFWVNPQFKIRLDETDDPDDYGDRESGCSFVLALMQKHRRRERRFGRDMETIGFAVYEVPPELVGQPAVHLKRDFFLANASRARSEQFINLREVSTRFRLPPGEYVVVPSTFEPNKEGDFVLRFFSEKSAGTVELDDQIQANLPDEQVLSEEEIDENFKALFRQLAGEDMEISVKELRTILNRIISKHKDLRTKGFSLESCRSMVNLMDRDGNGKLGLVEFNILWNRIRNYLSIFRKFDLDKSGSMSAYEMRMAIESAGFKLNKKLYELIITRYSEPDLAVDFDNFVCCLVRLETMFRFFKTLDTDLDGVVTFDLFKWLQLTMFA
# experiment_description: Inhibition of calpain I (Succ-Leu-Tyr-MNA hydrolysis)
# Assay type: biochemical
# test_context: Tables 2-4; pH 7.5
recorded_endpoint: IC50 (nM)

// worked examples, IC50 included
COCCOCCCNC(=O)C(=O)C(Cc1ccccc1)NC(=O)c1cc(C#Cc2ccccc2)nc2ccccc12 (stereo not shown): 570
CC(NC(=O)C(=O)C(Cc1ccccc1)NC(=O)c1cc(C#Cc2ccccc2)nc2ccccc12)c1ccccc1 (stereo not shown): 510

I. O=C(NCCCN1CCOCC1)C(=O)C(Cc1ccccc1)NC(=O)c1cc(C#Cc2ccccc2)nc2ccccc12 (stereo not shown)
II. Cc1cc(C(=O)NC(Cc2ccccc2)C(=O)C(=O)NCCNS(=O)(=O)c2ccc(-c3ccccn3)s2)c2ccccc2n1 (single isomer, unassigned)
III. O=C(NC1CCCCNC1=O)C(=O)C(Cc1ccccc1)NC(=O)c1cc(C#Cc2ccccc2)nc2ccccc12 (stereo not shown)
IV. NS(=O)(=O)c1ccc(CNC(=O)C(=O)C(Cc2ccccc2)NC(=O)c2cc(C#Cc3ccccc3)nc3ccccc23)cc1 (stereo not shown)
V. COC(=O)C(Cc1ccccc1)NC(=O)C(=O)C(Cc1ccccc1)NC(=O)c1cc(C#Cc2ccccc2)nc2ccccc12 (stereo not shown)
Arrange the 5 compounds from largest to smallest IC50. Note for the reader: the ranking is given by listing the labels in the order requested.
V, I, IV, III, II
